# test.system: ZmDRIK1-K217-P492 (Zea mays, UniProt C0P4K9)
# Construct: kinase domain, K217-P492
# Sequence (C0P4K9 1-514): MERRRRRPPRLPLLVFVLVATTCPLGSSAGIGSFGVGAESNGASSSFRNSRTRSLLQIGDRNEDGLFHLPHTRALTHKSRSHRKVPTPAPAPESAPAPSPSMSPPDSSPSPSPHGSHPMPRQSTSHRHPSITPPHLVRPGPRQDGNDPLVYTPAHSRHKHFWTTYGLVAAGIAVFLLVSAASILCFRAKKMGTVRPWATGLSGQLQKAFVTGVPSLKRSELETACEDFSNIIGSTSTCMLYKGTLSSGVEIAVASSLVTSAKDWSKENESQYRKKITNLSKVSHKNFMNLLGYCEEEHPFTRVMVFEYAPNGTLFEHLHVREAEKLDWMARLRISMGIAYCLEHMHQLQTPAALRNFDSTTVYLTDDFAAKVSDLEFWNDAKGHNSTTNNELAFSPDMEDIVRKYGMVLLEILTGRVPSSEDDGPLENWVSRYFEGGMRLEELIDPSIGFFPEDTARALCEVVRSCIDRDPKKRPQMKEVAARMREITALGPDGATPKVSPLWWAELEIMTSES
# procedure.details: biochemical
# test.context: read-out: dTm B, sheet ZmDRIK1-K217-P492;; DSF, Boltzmann fit, 0.1% DMSO
readout: ΔTm at 10 µM (°C)
Answer in °C, number only, no unit symbol.

Guide cases for ΔTm at 10 µM, answers given:
# compound, u, measured
records = [
    ("Cc1nc(NC(=O)N2CCC[C@H]2C(N)=O)sc1-c1csc(C(C)(C)C)n1", "°C", -0.988),
    ("Clc1ccc(Nc2nnc(Cc3ccncc3)c3ccccc23)cc1 [Vatalanib (PTK787) 2HCl]", "°C", -1.11),
    ("CCCS(=O)(=O)Nc1ccc(F)c(C(=O)c2c[nH]c3ncc(-c4ccc(Cl)cc4)cc23)c1F", "°C", -0.0662),
    ("O=C1Nc2ccccc2/C1=C1/Nc2ccccc2C1=O", "°C", -1.26),
    ("COc1cc2ncnc(Nc3ccc(O)c(Br)c3)c2cc1OC", "°C", 0.694),
]

Tell us which ΔTm at 10 µM value is on record for Cn1cnc2c(F)c(Nc3ccc(Br)cc3Cl)c(C(=O)NOCCO)cc21 -1.37

Tell us which ΔTm at 10 µM value is on record for CC(=O)Nc1cccc(-n2c(=O)n(C3CC3)c(=O)c3c(Nc4ccc(I)cc4F)n(C)c(=O)c(C)c32)c1 -1.15

Tell us which ΔTm at 10 µM value is on record for Cc1c(F)cc(C(=O)NC2CC2)cc1-c1ccc(C(=O)NCC(C)(C)C)cn1 [Losmapimod (GW856553X)] -0.577
